# EXPERIMENT_NOTES: Inhibition of Escherichia coli MsbA preincubated for 10 mins followed by ATP addition and incubated for 1 hr by fluorescence polarization assay
pIC50: −log10 of the molar value.
Is pIC50 at least 8? Then yes. If not, no.

{"MOLECULE": "C[C@H](Oc1ccc(/C=C/C(=O)O)c(CC2CC2)c1)c1c(Cl)ccc(F)c1Cl", "CLASSIFICATION": "no"}
{"MOLECULE": "C[C@H](Oc1ccc2ncc(/C=C/C(=O)O)c(C3CC3)c2c1)c1c(Cl)ccc(F)c1Cl", "CLASSIFICATION": "yes"}
{"MOLECULE": "C[C@H](Oc1ccc2ncc(/C=C/C(=O)O)cc2c1)c1c(Cl)ccc(F)c1Cl", "CLASSIFICATION": "no"}
{"MOLECULE": "O=C(O)/C=C/c1cnc2ccc(O[C@@H](CO)c3c(Cl)cccc3Cl)cc2c1C1CC1", "CLASSIFICATION": "no"}
